molecular target: α1a (Rat) (Rattus norvegicus, UniProt P43140); assay: Radioligand binding, displacement of [3H]-prazosin from cloned α1a (rat) expressed in LTK cells; conditions: [3H]-prazosin 0.2 nM; cloned rat α1a in LTK cell membranes; 25° C., 50 minutes
Sequence (P43140 whole entry): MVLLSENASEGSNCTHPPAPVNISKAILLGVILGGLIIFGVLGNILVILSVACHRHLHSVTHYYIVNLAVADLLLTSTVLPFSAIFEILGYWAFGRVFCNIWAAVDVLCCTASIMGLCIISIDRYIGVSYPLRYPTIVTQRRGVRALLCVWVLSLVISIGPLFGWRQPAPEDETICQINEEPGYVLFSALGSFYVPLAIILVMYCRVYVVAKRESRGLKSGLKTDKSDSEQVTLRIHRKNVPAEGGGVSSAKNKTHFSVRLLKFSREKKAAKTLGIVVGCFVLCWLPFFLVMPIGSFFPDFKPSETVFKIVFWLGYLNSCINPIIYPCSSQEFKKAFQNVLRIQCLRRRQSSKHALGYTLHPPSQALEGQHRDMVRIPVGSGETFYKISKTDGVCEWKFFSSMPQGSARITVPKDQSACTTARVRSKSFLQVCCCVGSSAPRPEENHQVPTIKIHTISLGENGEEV
Where a name gives a salt, the structure may show the parent alone.
MEASURE: Ki (nM)
One number for each entry, in nM.

COMPOUND | TARGET | MEASURE | TEST_RESULT
COc1cccc([C@H]2CCN(CCCCn3c(=O)[nH]c4c(sc5ncccc54)c3=O)C2)c1 [Example 24, Dihydrochloride] | α1a (Rat) (Rattus norvegicus, UniProt P43140) | Ki | 7.37
COc1ccccc1[C@H]1CCN(CCCCn2c(=O)[nH]c3c(sc4ncc(-c5ccccc5)nc43)c2=O)C1 [Example 16, Dihydrochloride] | α1a (Rat) (Rattus norvegicus, UniProt P43140) | Ki | 1.61
COc1ccccc1[C@H]1CCN(CCCCCn2c(=O)[nH]c3c(sc4ncccc43)c2=O)C1 [Example 9, Dihydrochloride] | α1a (Rat) (Rattus norvegicus, UniProt P43140) | Ki | 3.3

Please give Ki, item by item, for the list that follows.
1. COc1cccc([C@@H]2CCN(CCn3c(=O)[nH]c4c(sc5ccccc54)c3=O)C2)c1 [Example 26, Monohydrochloride]
2. COc1cccc([C@H]2CCN(CCn3c(=O)[nH]c4c(sc5cccnc54)c3=O)C2)c1 [Example 20, Dihydrochloride]
3. COc1ccccc1[C@@H]1CCN(CCCCn2c(=O)[nH]c3c(sc4cccnc43)c2=O)C1 [Example 29, Dihydrochloride]
4. COc1ccccc1[C@H]1CCN(CCCn2c(=O)[nH]c3c(sc4cccnc43)c2=O)C1 [Example 5, Dihydrochloride]

Completion:
6.79
46.3
1.98
2.05

====

molecular target: α1a (Rat) (Rattus norvegicus, UniProt P43140); test: Radioligand binding, displacement of [3H]-prazosin from cloned α1a (rat) expressed in LTK cells; settings: [3H]-prazosin 0.2 nM; cloned rat α1a in LTK cell membranes; 25° C., 50 minutes
Where a name gives a salt, the structure may show the parent alone.
Provide the recorded Ki for the entries that follow.
Answers are plain numbers, in nM.

Would you please look over these solved cases?
MOLECULE | MEASURE | TEST_RESULT
COc1ccccc1[C@H]1CCN(CCCCn2c(=O)[nH]c3c(sc4ccc(Cl)nc43)c2=O)C1 [Example 10, Dihydrochloride] | Ki | 0.22
COc1cccc([C@H]2CCN(CCCCn3c(=O)[nH]c4c(sc5cccnc54)c3=O)C2)c1 [Example 22, Dihydrochloride] | Ki | 5.11
COc1ccccc1[C@H]1CCN(CCCCN2C(=O)COc3ccccc32)C1 [Example 18, Monohydrochloride] | Ki | 0.46

Please give Ki, item by item, for the list that follows.
1. COc1cccc([C@H]2CCN(CCCn3c(=O)[nH]c4c(sc5cccnc54)c3=O)C2)c1 [Example 21, Dihydrochloride]
2. COc1cnc2sc3c(=O)n(CCCCN4CC[C@H](c5ccccc5OC)C4)c(=O)[nH]c3c2n1 [Example 15, Dihydrochloride]
3. COc1ccc2sc3c(=O)n(CCCCN4CC[C@H](c5ccccc5OC)C4)c(=O)[nH]c3c2n1 [Example 11, Dihydrochloride]

Completion:
1: 27.3; 2: 0.26; 3: 0.67

Prompt: Fill in reported Ki for this entry: COc1ccccc1[C@H]1CCN(CCCCCn2c(=O)[nH]c3c(sc4cccnc43)c2=O)C1 [Example 7, Dihydrochloride]
Completion: 2.11

====

biological target: α1a (Bovine) (Bos taurus); assay: Radioligand binding, displacement of [3H]-prazosin from cloned α1a (bovine) expressed in LTK cells; settings: [3H]-prazosin 0.2 nM; cloned bovine α1a in LTK cell membranes; 25° C., 50 minutes
Sequence (P18130 whole entry): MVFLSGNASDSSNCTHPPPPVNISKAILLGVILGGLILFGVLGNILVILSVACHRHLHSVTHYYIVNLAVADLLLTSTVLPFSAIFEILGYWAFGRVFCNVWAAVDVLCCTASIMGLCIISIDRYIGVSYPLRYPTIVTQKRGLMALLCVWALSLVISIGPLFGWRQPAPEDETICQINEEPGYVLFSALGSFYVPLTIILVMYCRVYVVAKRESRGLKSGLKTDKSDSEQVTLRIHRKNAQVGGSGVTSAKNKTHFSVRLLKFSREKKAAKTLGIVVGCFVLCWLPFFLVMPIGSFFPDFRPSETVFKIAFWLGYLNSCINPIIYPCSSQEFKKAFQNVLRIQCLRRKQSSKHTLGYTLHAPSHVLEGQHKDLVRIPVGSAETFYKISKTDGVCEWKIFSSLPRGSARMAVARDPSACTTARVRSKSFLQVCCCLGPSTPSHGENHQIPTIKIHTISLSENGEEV
Structures can show the parent of a compound that is named as a salt.
Provide the recorded Ki for the entries that follow.

Would you please look over these solved cases?
COMPOUND | TARGET | Ki
COc1ccccc1[C@H]1CCN(CCCn2c(=O)[nH]c3c(sc4cccnc43)c2=O)C1 [Example 5, Dihydrochloride] | α1a (Bovine) (Bos taurus) | 1.25 nM
COc1ccccc1[C@@H]1CCN(CCCCn2c(=O)[nH]c3c(sc4cccnc43)c2=O)C1 [Example 29, Dihydrochloride] | α1a (Bovine) (Bos taurus) | 0.69 nM
COc1cccc([C@H]2CCN(CCn3c(=O)[nH]c4c(sc5cccnc54)c3=O)C2)c1 [Example 20, Dihydrochloride] | α1a (Bovine) (Bos taurus) | 12 nM
COc1cccc([C@H]2CCN(CCn3c(=O)[nH]c4c(sc5ncccc54)c3=O)C2)c1 [Example 23, Dihydrochloride] | α1a (Bovine) (Bos taurus) | 27 nM
COc1ccccc1[C@@H]1CCN(CCn2c(=O)[nH]c3c(sc4cccnc43)c2=O)C1 [Example 27, Dihydrochloride] | α1a (Bovine) (Bos taurus) | 2.46 nM
COc1cccc([C@H]2CCN(CCCn3c(=O)[nH]c4c(sc5cccnc54)c3=O)C2)c1 [Example 21, Dihydrochloride] | α1a (Bovine) (Bos taurus) | 8 nM

Pending compound:
Prompt: Name the recorded Ki of COc1ccccc1[C@H]1CCN(CCn2c(=O)[nH]c3c(sc4ccccc43)c2=O)C1 [Example 1, Monohydrochloride] , assay system α1a (Bovine) (Bos taurus).
Completion: 0.13 nM

====

Provide the recorded Ki for the entries that follow.
target: α1b (Hamster) (Mesocricetus auratus); experiment: Radioligand binding, displacement of [3H]-prazosin from cloned α1b (hamster) expressed in LTK cells; details: [3H]-prazosin 0.2 nM; cloned hamster α1b in LTK cell membranes; 25° C., 50 minutes
Sequence (P18841 whole entry): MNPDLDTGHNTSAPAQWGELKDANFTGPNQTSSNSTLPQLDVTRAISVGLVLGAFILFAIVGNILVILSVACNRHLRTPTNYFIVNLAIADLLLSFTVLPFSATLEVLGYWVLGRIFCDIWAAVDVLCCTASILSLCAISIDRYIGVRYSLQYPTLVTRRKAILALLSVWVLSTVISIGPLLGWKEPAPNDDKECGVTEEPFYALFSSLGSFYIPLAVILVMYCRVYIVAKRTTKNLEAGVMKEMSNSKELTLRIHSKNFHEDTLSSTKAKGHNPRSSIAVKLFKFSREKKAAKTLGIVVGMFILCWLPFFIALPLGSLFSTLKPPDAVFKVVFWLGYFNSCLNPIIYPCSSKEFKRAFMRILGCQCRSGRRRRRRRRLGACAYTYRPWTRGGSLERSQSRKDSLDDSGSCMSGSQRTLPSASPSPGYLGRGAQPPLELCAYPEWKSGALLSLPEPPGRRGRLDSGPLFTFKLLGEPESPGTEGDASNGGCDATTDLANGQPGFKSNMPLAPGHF
Structures can show the parent of a compound that is named as a salt.
One number for each entry, in nM.

Would you please look over these solved cases?
COMPOUND | TARGET | TEST_RESULT
COc1ccccc1[C@H]1CCN(CCCCCn2c(=O)[nH]c3c(sc4cccnc43)c2=O)C1 [Example 7, Dihydrochloride] | α1b (Hamster) (Mesocricetus auratus) | 4.86
COc1ccccc1[C@H]1CCN(CCCCn2c(=O)[nH]c3c(sc4ccc(Cl)nc43)c2=O)C1 [Example 10, Dihydrochloride] | α1b (Hamster) (Mesocricetus auratus) | 1.18

Please give Ki, item by item, for the list that follows.
1. COc1cnc2sc3c(=O)n(CCCCN4CC[C@H](c5ccccc5OC)C4)c(=O)[nH]c3c2n1 [Example 15, Dihydrochloride]
2. COc1cccc([C@H]2CCN(CCCn3c(=O)[nH]c4c(sc5cccnc54)c3=O)C2)c1 [Example 21, Dihydrochloride]

Completion:
2.37
70.7

====

Provide the recorded Ki for the entries that follow.
biological target: α1b (Hamster) (Mesocricetus auratus); assay: Radioligand binding, displacement of [3H]-prazosin from cloned α1b (hamster) expressed in LTK cells; details: [3H]-prazosin 0.2 nM; cloned hamster α1b in LTK cell membranes; 25° C., 50 minutes
Structures can show the parent of a compound that is named as a salt.
Give bare numbers, in nM.

Would you please look over these solved cases?
COMPOUND | TARGET | Ki / nM
COc1ccccc1[C@H]1CCN(CCCCn2c(=O)[nH]c3c(sc4ncccc43)c2=O)C1 [Example 8, Dihydrochloride] | α1b (Hamster) (Mesocricetus auratus) | 1.76
COc1ccccc1[C@H]1CCN(CCCCCn2c(=O)[nH]c3c(sc4ncccc43)c2=O)C1 [Example 9, Dihydrochloride] | α1b (Hamster) (Mesocricetus auratus) | 7.38

Please give Ki, item by item, for the list that follows.
1. COc1ccccc1[C@H]1CCN(CCn2c(=O)[nH]c3c(sc4ccccc43)c2=O)C1 [Example 1, Monohydrochloride]
2. COc1cccc([C@H]2CCN(CCn3c(=O)[nH]c4c(sc5ncccc54)c3=O)C2)c1 [Example 23, Dihydrochloride]

Completion:
1: 0.94; 2: 331

====

Provide the recorded Ki for the entries that follow.
molecular target: α1a (Rat) (Rattus norvegicus, UniProt P43140); experiment: Radioligand binding, displacement of [3H]-prazosin from cloned α1a (rat) expressed in LTK cells; conditions: [3H]-prazosin 0.2 nM; cloned rat α1a in LTK cell membranes; 25° C., 50 minutes
Where a name gives a salt, the structure may show the parent alone.
One number for each entry, in nM.

Would you please look over these solved cases?
COMPOUND | TARGET | MEASURE | TEST_RESULT
COc1ccccc1[C@H]1CCN(CCCCn2c(=O)[nH]c3c(sc4nccnc43)c2=O)C1 [Example 13, Dihydrochloride] | α1a (Rat) (Rattus norvegicus, UniProt P43140) | Ki | 0.21
COc1ccccc1[C@H]1CCN(CCCCN2C(=O)c3ccccc3S2(=O)=O)C1 [Example 17, Monohydrochloride] | α1a (Rat) (Rattus norvegicus, UniProt P43140) | Ki | 0.13
COc1ccccc1[C@H]1CCN(CCCCn2c(=O)[nH]c3c(sc4ccccc43)c2=O)C1 [Example 2, Monohydrochloride] | α1a (Rat) (Rattus norvegicus, UniProt P43140) | Ki | 0.18
COc1ccccc1[C@H]1CCN(CCCCn2c(=O)[nH]c3c(sc4cccnc43)c2=O)C1 [Example 6, Dihydrochloride] | α1a (Rat) (Rattus norvegicus, UniProt P43140) | Ki | 0.12

Please give Ki, item by item, for the list that follows.
1. COc1cccc([C@H]2CCN(CCn3c(=O)[nH]c4c(sc5ccccc54)c3=O)C2)c1 [Example 3, Monohydrochloride]
2. COc1ccccc1[C@H]1CCN(CCCCN2C(=O)CCc3ccccc32)C1 [Example 19, Monohydrochloride]
3. COc1ccccc1[C@@H]1CCN(CCn2c(=O)[nH]c3c(sc4cccnc43)c2=O)C1 [Example 27, Dihydrochloride]
4. COc1ccccc1[C@@H]1CCN(CCn2c(=O)[nH]c3c(sc4ccccc43)c2=O)C1 [Example 25, Monohydrochloride]
5. COc1ccccc1[C@H]1CCN(CCn2c(=O)[nH]c3c(sc4ccccc43)c2=O)C1 [Example 1, Monohydrochloride]
6. COc1ccccc1[C@H]1CCN(CCCCn2c(=O)[nH]c3c(sc4ncccc43)c2=O)C1 [Example 8, Dihydrochloride]
7. COc1ccccc1[C@H]1CCN(CCCCn2c(=O)[nH]c3c(sc4ncc(Cl)nc43)c2=O)C1 [Example 14, Dihydrochloride]

Completion:
34
0.57
14.4
9.33
1.8
0.12
0.22
